Reference for the values: patent US20240010721A1

- target_of_assay: ROR1 (antigen of the KD determination and of the Octet dissociation measurement) (UniProt Q01973 30-403, limits assumed)
- Sequence (Q01973 30-403 limits assumed): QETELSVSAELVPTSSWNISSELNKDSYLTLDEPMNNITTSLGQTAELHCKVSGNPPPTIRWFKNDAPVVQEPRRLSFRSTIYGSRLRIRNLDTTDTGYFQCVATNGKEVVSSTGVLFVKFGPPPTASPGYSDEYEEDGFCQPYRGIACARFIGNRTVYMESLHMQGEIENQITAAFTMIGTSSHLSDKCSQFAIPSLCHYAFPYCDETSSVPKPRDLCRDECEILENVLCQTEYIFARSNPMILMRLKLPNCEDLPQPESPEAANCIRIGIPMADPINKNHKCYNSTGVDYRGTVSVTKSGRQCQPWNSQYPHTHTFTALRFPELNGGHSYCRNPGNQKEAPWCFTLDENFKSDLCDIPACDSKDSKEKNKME
- method: Octet, antigen form not stated
experimental_readout: Response
// response body must contain only the number

Sample answers from the record:
[[record]]
binder = "PR002577 (antibody, human IgG1, kappa, V domains shown, PR001364 variant: VH G55A; hIgG1; also called anti-ROR1 1015M3-D8(H: G55A) hIgG1) VH: EVQLLESGGGVVQPGRSLRLSCAASGFTFSSFGMHWVRQAPGKGLEWVAVIWYDASDKDYADSVKGRFTISRDTSKNTLYLQMNSLRAEDTAVYYCAREQARSFDLWGRGTLVTVSS VL: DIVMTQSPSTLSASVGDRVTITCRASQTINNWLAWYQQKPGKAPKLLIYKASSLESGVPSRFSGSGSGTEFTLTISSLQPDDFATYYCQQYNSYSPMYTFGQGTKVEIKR"
test_value = 0.244

[[record]]
binder = "PR002586 (antibody, human IgG1, kappa, V domains shown, PR001369 variant: VH G55A, VL N92Q; hIgG1; also called anti-ROR1 1015M3-H10(H: G55A; L: N92Q) hIgG1) VH: QVQLVESGGGVVQPGRSLRLSCAASGFTFSNYGIHWVRQAPGKGLEWVAIMWYDASNTDYADSVKGRFTISRDTSKNTLFLQMNSLRAEDTAVYYCAREQARSFDLWGRGTLVTVSS VL: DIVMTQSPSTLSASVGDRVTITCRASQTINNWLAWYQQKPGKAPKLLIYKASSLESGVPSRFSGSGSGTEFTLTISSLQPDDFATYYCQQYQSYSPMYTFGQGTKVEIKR"
test_value = 0.754


Data request: Query: Response; subject: PR002575 (antibody, human IgG1, kappa, V domains shown, PR001364 variant: VH D54E, VL N92Q; hIgG1; also called anti-ROR1 1015M3-D8(H: D54E; L: N92Q) hIgG1) VH: EVQLLESGGGVVQPGRSLRLSCAASGFTFSSFGMHWVRQAPGKGLEWVAVIWYEGSDKDYADSVKGRFTISRDTSKNTLYLQMNSLRAEDTAVYYCAREQARSFDLWGRGTLVTVSS VL: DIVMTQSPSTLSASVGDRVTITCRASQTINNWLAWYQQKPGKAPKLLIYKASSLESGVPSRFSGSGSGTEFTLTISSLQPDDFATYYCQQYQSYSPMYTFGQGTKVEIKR
Data returned: 0.828
